Target: AKT2 (human) (UniProt P31751)
Sequence (P31751 whole entry, looked up): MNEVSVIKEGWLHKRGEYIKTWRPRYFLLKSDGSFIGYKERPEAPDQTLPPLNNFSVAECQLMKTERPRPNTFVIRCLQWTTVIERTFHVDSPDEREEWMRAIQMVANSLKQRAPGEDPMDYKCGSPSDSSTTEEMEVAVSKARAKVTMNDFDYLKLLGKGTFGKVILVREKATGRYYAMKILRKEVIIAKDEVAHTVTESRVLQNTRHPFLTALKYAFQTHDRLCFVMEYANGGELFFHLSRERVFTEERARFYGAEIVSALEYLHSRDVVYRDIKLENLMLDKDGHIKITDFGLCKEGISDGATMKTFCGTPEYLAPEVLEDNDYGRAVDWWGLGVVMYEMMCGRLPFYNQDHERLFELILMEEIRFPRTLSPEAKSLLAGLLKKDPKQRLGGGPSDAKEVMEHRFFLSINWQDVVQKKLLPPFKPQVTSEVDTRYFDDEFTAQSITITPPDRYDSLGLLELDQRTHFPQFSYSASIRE
Assay: KINOMEscan competition binding
Settings: compound 10.0 µM
kinase still bound, per cent of control values for the compounds below.

| COMPOUND | UNIT OF MEASUREMENT | kinase still bound, per cent of control |
| --- | --- | --- |
| Cc1cn(-c2cc(C(=O)Nc3ccc(C)c(NC(=O)c4ccno4)c3)cc(C(F)(F)F)c2)cn1 | % | 100 |
| CNC(=O)Nc1ccc(-c2nc(N3CC4CCC(C3)O4)c3cnn(C4CCC5(CC4)OCCO5)c3n2)cc1 | % | 100 |
| CCc1nc(-c2cccc(C)c2)c(-c2ccnc(NC(=O)c3ccccc3)c2)s1 | % | 80 |
| COc1cc2ncnc(Nc3cccc(Cl)c3)c2cc1OC | % | 100 |
| COc1cc(C)c(Sc2cnc(NC(=O)c3ccc(CNC(C)C(C)C)cc3)s2)cc1C(=O)N1CCN(C(C)=O)CC1 (centres undefined) | % | 100 |
| N#Cc1cc(-c2ccnc(Nc3ccc(-n4cnc(-c5cccnc5)n4)cc3)n2)cc(N2CCOCC2)c1 | % | 100 |
| CCOc1cc(N2CCC(O)CC2)ccc1Nc1ncc2c(n1)N(C)c1ccccc1C(=O)N2C | % | 100 |
| CCCS(=O)(=O)Nc1ccc(F)c(C(=O)c2c[nH]c3ncc(Cl)cc23)c1F | % | 68 |
| N#C/C(=C1/Nc2ccccc2S1)c1ccnc(NCCc2cccnc2)n1 | % | 89 |

###

Biological target: PTK6 (human) (UniProt Q13882)
Sequence (Q13882 whole entry, looked up): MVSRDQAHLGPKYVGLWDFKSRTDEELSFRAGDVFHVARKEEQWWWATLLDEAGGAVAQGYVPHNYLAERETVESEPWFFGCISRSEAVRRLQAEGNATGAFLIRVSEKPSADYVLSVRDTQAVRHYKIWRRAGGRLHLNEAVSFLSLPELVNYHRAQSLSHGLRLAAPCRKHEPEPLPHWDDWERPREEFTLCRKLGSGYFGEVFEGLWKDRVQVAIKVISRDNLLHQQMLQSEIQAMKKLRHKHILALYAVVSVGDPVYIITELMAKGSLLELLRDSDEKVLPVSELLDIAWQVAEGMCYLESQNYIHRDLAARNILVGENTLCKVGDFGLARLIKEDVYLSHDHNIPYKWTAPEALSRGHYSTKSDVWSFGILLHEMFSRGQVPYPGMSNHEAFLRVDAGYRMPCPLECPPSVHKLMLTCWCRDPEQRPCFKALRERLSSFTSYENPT
Assay: KINOMEscan competition binding
Conditions: compound 10.0 µM
kinase still bound, per cent of control values for the compounds below.

| COMPOUND STRUCTURE STRING | TARGET UNDER TEST | kinase still bound, per cent of control [%] |
| --- | --- | --- |
| N#C/C(=C1/Nc2ccccc2S1)c1ccnc(NCCc2cccnc2)n1 | PTK6 (human) (UniProt Q13882) | 59 |
| COc1cc(N2CCC(C(N)=O)CC2)ccc1Nc1nc(N)c(Cl)c(Nc2ccccc2S(=O)(=O)C(C)C)n1 | PTK6 (human) (UniProt Q13882) | 3 |
| COc1ccc(N(C(=O)Oc2cc(C(=O)Nc3cccc(C(F)(F)F)c3)ccc2C)c2ccnc(Nc3ccc(N4CCN(C)CC4)cc3)n2)c(OC)c1 | PTK6 (human) (UniProt Q13882) | 4 |
| COc1cc2c(Nc3ccc(NC(=O)c4ccccc4)cc3)ncnc2cc1OCCCN1CCOCC1 | PTK6 (human) (UniProt Q13882) | 0.8 |
| CCCS(=O)(=O)Nc1ccc(F)c(C(=O)c2c[nH]c3ncc(Cl)cc23)c1F | PTK6 (human) (UniProt Q13882) | 0.5 |

###

kinase still bound, per cent of control values for the molecules below.
Target: UniProt:Q16512
Sequence (Q16512 whole entry, looked up): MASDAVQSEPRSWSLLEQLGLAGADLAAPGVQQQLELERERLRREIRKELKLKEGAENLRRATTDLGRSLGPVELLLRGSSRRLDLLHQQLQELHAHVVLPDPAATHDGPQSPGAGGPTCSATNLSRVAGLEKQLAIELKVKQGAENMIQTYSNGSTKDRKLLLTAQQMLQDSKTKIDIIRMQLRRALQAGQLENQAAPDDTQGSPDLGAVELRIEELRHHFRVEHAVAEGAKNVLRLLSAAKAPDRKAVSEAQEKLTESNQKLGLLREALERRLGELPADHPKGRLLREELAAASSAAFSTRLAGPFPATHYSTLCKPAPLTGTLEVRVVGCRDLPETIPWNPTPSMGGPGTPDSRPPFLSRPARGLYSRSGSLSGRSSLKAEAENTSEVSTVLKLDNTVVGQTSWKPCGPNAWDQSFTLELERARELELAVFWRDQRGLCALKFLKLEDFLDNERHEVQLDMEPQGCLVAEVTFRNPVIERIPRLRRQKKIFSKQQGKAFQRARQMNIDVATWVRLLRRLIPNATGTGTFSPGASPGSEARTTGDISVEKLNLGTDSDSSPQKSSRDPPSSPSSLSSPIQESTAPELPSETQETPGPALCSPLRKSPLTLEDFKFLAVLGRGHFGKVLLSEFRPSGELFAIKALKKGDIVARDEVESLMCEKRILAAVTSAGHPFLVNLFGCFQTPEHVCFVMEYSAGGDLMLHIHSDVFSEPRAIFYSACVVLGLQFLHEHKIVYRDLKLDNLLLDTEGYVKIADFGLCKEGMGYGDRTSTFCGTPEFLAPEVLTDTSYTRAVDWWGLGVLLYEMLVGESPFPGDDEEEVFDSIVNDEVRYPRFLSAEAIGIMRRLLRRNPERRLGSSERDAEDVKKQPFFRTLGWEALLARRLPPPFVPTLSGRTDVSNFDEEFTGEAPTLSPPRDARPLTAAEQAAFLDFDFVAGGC
Experiment: KINOMEscan competition binding
Conditions: compound 10.0 µM

| MOLECULE | UNIT OF MEASUREMENT | kinase still bound, per cent of control |
| --- | --- | --- |
| COc1ccc(N(C(=O)Oc2cc(C(=O)Nc3cccc(C(F)(F)F)c3)ccc2C)c2ccnc(Nc3ccc(N4CCN(C)CC4)cc3)n2)c(OC)c1 | % | 100 |
| COc1cc2c(Nc3ccc(NC(=O)c4ccccc4)cc3)ncnc2cc1OCCCN1CCOCC1 | % | 100 |
| Cc1cn(-c2cc(C(=O)Nc3ccc(C)c(NC(=O)c4ccno4)c3)cc(C(F)(F)F)c2)cn1 | % | 100 |
| C=CC(=O)Nc1ccc(C(=O)c2sc(Nc3ccc(N4CCN(C)CC4)cc3OC)nc2N)cc1 | % | 97 |
| CC1=C(C(=O)Nc2cc3cn[nH]c3cc2F)C(c2ccc(C(F)(F)F)cc2)CC(=O)N1 (stereo not given) | % | 19 |
| CCN1CCN(Cc2ccc(NC(=O)c3ccc(C)c(/C=C/c4cnc5[nH]ccc5c4OC)c3)cc2C(F)(F)F)CC1 | % | 16 |
| CCCS(=O)(=O)Nc1ccc(F)c(C(=O)c2c[nH]c3ncc(Cl)cc23)c1F | % | 85 |
| COc1cc(C)c(Sc2cnc(NC(=O)c3ccc(CNC(C)C(C)C)cc3)s2)cc1C(=O)N1CCN(C(C)=O)CC1 (stereo not given) | % | 100 |
| N#C/C(=C1/Nc2ccccc2S1)c1ccnc(NCCc2cccnc2)n1 | % | 95 |
| CCN(CCO)CCCOc1ccc2c(Nc3cc(CC(=O)Nc4cccc(F)c4)[nH]n3)ncnc2c1 | % | 90 |
| CC(=O)c1c(C)c2cnc(Nc3ccc(N4CCNCC4)cn3)nc2n(C2CCCC2)c1=O | % | 66 |
| CCOc1cc(N2CCC(O)CC2)ccc1Nc1ncc2c(n1)N(C)c1ccccc1C(=O)N2C | % | 100 |
| O=c1[nH]c2ccccc2n1C1CCN(Cc2ccc(-c3nc4cc5[nH]cnc5cc4nc3-c3ccccc3)cc2)CC1 | % | 100 |
| COc1cc(N2CCC(C(N)=O)CC2)ccc1Nc1nc(N)c(Cl)c(Nc2ccccc2S(=O)(=O)C(C)C)n1 | % | 100 |
| CCc1nc(-c2cccc(C)c2)c(-c2ccnc(NC(=O)c3ccccc3)c2)s1 | % | 98 |

###

Biological target: AAK1 (human) (UniProt Q2M2I8)
Sequence (Q2M2I8 whole entry, looked up): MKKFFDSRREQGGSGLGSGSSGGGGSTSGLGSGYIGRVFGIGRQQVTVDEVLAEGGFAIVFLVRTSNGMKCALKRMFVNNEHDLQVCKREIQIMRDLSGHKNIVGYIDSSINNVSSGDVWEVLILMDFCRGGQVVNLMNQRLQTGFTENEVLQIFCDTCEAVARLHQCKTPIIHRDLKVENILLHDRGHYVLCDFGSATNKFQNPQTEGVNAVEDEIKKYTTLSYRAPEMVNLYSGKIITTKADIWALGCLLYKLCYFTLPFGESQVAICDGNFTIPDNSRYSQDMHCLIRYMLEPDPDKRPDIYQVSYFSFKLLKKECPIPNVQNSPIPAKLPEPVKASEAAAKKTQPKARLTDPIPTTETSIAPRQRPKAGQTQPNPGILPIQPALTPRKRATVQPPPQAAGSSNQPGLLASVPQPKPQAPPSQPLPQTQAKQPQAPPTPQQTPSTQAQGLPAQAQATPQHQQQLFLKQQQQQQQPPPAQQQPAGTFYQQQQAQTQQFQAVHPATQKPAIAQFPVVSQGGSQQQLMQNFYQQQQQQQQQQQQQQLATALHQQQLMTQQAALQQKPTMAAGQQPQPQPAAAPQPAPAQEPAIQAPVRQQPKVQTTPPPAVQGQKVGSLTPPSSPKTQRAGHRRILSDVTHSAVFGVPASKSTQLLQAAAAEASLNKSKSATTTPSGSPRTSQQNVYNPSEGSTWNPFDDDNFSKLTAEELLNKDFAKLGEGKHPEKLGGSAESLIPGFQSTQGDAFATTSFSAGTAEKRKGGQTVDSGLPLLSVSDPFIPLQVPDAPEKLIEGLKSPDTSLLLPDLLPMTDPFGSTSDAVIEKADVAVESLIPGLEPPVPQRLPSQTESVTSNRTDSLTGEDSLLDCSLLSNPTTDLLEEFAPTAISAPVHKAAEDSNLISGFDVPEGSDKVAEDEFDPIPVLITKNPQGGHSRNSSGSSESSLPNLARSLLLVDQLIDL
Test: KINOMEscan competition binding
Details: compound 10.0 µM

| COMPOUND STRUCTURE STRING | TARGET UNDER TEST | UNIT OF MEASUREMENT | kinase still bound, per cent of control |
| --- | --- | --- | --- |
| COc1cc2c(Nc3ccc(NC(=O)c4ccccc4)cc3)ncnc2cc1OCCCN1CCOCC1 | AAK1 (human) (UniProt Q2M2I8) | % | 94 |
| CNC(=O)Nc1ccc(-c2nc(N3CC4CCC(C3)O4)c3cnn(C4CCC5(CC4)OCCO5)c3n2)cc1 | AAK1 (human) (UniProt Q2M2I8) | % | 100 |
| COc1cc2ncnc(Nc3cccc(Cl)c3)c2cc1OC | AAK1 (human) (UniProt Q2M2I8) | % | 18 |
| C=CC(=O)Nc1ccc(C(=O)c2sc(Nc3ccc(N4CCN(C)CC4)cc3OC)nc2N)cc1 | AAK1 (human) (UniProt Q2M2I8) | % | 11 |

###

Biological target: ADCK3 (human)
Experiment: KINOMEscan competition binding
Details: compound 10.0 µM
kinase still bound, per cent of control values for the compounds below.

| COMPOUND STRUCTURE STRING | TARGET UNDER TEST | UNIT OF MEASUREMENT | kinase still bound, per cent of control |
| --- | --- | --- | --- |
| COc1ccc(N(C(=O)Oc2cc(C(=O)Nc3cccc(C(F)(F)F)c3)ccc2C)c2ccnc(Nc3ccc(N4CCN(C)CC4)cc3)n2)c(OC)c1 | ADCK3 (human) | % | 100 |
| N#C/C(=C1/Nc2ccccc2S1)c1ccnc(NCCc2cccnc2)n1 | ADCK3 (human) | % | 91 |
| CCCS(=O)(=O)Nc1ccc(F)c(C(=O)c2c[nH]c3ncc(Cl)cc23)c1F | ADCK3 (human) | % | 92 |
| COc1cc(N2CCC(C(N)=O)CC2)ccc1Nc1nc(N)c(Cl)c(Nc2ccccc2S(=O)(=O)C(C)C)n1 | ADCK3 (human) | % | 0.1 |
| Cc1cn(-c2cc(C(=O)Nc3ccc(C)c(NC(=O)c4ccno4)c3)cc(C(F)(F)F)c2)cn1 | ADCK3 (human) | % | 100 |
| COc1cc2c(Nc3ccc(NC(=O)c4ccccc4)cc3)ncnc2cc1OCCCN1CCOCC1 | ADCK3 (human) | % | 90 |
| CCOc1cc(N2CCC(O)CC2)ccc1Nc1ncc2c(n1)N(C)c1ccccc1C(=O)N2C | ADCK3 (human) | % | 100 |

###

Molecular target: RET (human) (UniProt P07949)
Sequence (P07949 whole entry, looked up): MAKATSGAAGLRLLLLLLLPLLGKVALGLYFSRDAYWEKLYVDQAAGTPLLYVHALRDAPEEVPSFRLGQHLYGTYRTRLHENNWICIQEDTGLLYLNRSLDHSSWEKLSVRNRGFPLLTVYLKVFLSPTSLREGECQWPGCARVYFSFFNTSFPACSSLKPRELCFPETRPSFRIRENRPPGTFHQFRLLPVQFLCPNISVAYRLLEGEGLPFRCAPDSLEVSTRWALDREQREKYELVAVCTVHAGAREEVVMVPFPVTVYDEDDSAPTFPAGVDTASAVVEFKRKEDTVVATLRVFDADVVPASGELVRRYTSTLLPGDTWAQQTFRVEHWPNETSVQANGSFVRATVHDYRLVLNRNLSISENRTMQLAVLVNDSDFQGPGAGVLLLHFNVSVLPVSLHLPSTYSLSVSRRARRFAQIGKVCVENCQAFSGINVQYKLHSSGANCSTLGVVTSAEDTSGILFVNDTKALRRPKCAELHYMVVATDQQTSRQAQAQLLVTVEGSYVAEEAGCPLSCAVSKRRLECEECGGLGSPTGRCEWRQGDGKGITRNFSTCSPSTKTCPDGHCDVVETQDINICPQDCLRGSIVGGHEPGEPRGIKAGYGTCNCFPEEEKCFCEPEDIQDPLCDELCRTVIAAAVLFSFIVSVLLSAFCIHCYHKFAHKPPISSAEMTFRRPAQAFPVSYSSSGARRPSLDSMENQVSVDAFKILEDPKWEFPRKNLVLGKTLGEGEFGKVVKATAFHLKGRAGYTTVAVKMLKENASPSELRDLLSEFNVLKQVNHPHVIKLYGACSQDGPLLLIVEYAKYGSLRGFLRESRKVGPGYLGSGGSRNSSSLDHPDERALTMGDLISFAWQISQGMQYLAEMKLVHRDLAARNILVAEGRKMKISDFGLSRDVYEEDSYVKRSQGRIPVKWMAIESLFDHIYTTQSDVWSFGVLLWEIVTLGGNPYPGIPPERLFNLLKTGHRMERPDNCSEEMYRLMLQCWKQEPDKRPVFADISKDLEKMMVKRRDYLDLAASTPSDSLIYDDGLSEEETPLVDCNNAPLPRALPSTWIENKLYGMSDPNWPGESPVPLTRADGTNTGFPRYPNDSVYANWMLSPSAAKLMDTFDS
Test: KINOMEscan competition binding
Conditions: compound 10.0 µM
Please use the following kinase still bound, per cent of control ranges when assigning a class: low = under 0.3%, moderate = from 0.3% up to 80%, high = 80% and over

| COMPOUND STRUCTURE STRING | CAT |
| --- | --- |
| CCCS(=O)(=O)Nc1ccc(F)c(C(=O)c2c[nH]c3ncc(Cl)cc23)c1F | moderate |
| O=c1[nH]c2ccccc2n1C1CCN(Cc2ccc(-c3nc4cc5[nH]cnc5cc4nc3-c3ccccc3)cc2)CC1 | moderate |
| COc1cc2c(Nc3ccc(NC(=O)c4ccccc4)cc3)ncnc2cc1OCCCN1CCOCC1 | low |
| CCN(CCO)CCCOc1ccc2c(Nc3cc(CC(=O)Nc4cccc(F)c4)[nH]n3)ncnc2c1 | low |
| N#Cc1cc(-c2ccnc(Nc3ccc(-n4cnc(-c5cccnc5)n4)cc3)n2)cc(N2CCOCC2)c1 | high |
| CCc1nc(-c2cccc(C)c2)c(-c2ccnc(NC(=O)c3ccccc3)c2)s1 | moderate |
| COc1cc2ncnc(Nc3cccc(Cl)c3)c2cc1OC | moderate |
| CCN1CCN(Cc2ccc(NC(=O)c3ccc(C)c(/C=C/c4cnc5[nH]ccc5c4OC)c3)cc2C(F)(F)F)CC1 | low |
| N#C/C(=C1/Nc2ccccc2S1)c1ccnc(NCCc2cccnc2)n1 | high |
| CC(=O)c1c(C)c2cnc(Nc3ccc(N4CCNCC4)cn3)nc2n(C2CCCC2)c1=O | moderate |
| COc1ccc(N(C(=O)Oc2cc(C(=O)Nc3cccc(C(F)(F)F)c3)ccc2C)c2ccnc(Nc3ccc(N4CCN(C)CC4)cc3)n2)c(OC)c1 | moderate |
| CCOc1cc(N2CCC(O)CC2)ccc1Nc1ncc2c(n1)N(C)c1ccccc1C(=O)N2C | high |
